Sequence of the target: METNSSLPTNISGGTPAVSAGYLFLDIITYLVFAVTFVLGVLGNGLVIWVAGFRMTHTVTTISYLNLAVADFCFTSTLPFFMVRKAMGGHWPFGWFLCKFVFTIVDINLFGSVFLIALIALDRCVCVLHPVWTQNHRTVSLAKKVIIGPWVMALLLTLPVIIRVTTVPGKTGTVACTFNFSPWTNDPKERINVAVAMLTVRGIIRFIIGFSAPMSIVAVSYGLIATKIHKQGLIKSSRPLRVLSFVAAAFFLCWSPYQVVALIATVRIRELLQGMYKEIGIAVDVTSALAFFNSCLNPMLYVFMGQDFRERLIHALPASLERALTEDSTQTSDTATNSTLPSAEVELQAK
Non-standard residues stand in square brackets, D forms with d. Residues, ends and D or L forms follow the SMILES beside them. *: point of attachment. Benzoyl(4-F) = O=C(c1ccc(F)cc1)*; Nle = CCCC[C@H](N)C(=O)O; For = O=C*
Please go through the items and note down their Ki.
Give bare numbers, in nM.

[
  {
    "COMPOUND": "CCCC[C@H](NC=O)C(=O)N[C@@H](CC(C)C)C(=O)N[C@@H](Cc1ccccc1)C(=O)N[C@@H](CCCC)C(=O)N[C@@H](Cc1ccc(O)cc1)C(=O)N[C@H](CCCCN)C(=O)N[C@H](CCCCNC(=O)c1ccc(F)cc1)C(N)=O [Peptide 4] (For-[Nle]LF[Nle]Y[dK][dK](Benzoyl(4-F))-NH2)",
    "VALUE_TYPE": "Ki",
    "RESULT_UNIT": "nM",
    "OBSERVED_RESULT": 1.22
  }
]

The record that follows has no Ki shown yet.
Ask: Give the measured Ki of CCCC[C@H](NC(=O)[C@H](Cc1ccccc1)NC(=O)[C@H](CC(C)C)NC(=O)[C@H](CCSC)NC=O)C(=O)N[C@@H](Cc1ccc(O)cc1)C(=O)N[C@H](CCCCNC(=O)c1ccc(F)cc1)C(N)=O [Peptide 1] (For-MLF[Nle]Y[dK](Benzoyl(4-F))-NH2) .
Result: 0.04

---

Non-standard residues stand in square brackets, D forms with d. Residues, ends and D or L forms follow the SMILES beside them. *: point of attachment. Benzoyl(4-F) = O=C(c1ccc(F)cc1)*; Nle = CCCC[C@H](N)C(=O)O; For = O=C*
Read-out record for formylated peptide receptor (FPR) (Homo sapiens): pKi
Answers are plain numbers, as −log10 of the molar value.

[
  {
    "COMPOUND": "CCCC[C@H](NC=O)C(=O)N[C@@H](CC(C)C)C(=O)N[C@@H](Cc1ccccc1)C(=O)N[C@@H](CCCC)C(=O)N[C@@H](Cc1ccc(O)cc1)C(=O)N[C@H](CCCCNC(=O)c1ccc(F)cc1)C(N)=O [Peptide 2] (For-[Nle]LF[Nle]Y[dK](Benzoyl(4-F))-NH2)",
    "pKi": 9.40
  },
  {
    "COMPOUND": "CCCC[C@H](NC(=O)[C@H](Cc1ccccc1)NC(=O)[C@H](CC(C)C)NC(=O)[C@H](CCSC)NC=O)C(=O)N[C@@H](Cc1ccc(O)cc1)C(=O)N[C@H](CCCCNC(=O)c1ccc(F)cc1)C(=O)N[C@H](CCCCN)C(N)=O [Peptide 5] (For-MLF[Nle]Y[dK](Benzoyl(4-F))[dK]-NH2)",
    "pKi": 9.20
  },
  {
    "COMPOUND": "CCCC[C@H](NC(=O)[C@H](Cc1ccccc1)NC(=O)[C@H](CC(C)C)NC(=O)[C@H](CCSC)NC=O)C(=O)N[C@@H](Cc1ccc(O)cc1)C(=O)N[C@H](CCCCN)C(=O)N[C@H](CCCCNC(=O)c1ccc(F)cc1)C(N)=O [Peptide 3] (For-MLF[Nle]Y[dK][dK](Benzoyl(4-F))-NH2)",
    "pKi": 9.34
  }
]

Ask: Please give the measured pKi for this compound: CCCC[C@H](NC=O)C(=O)N[C@@H](CC(C)C)C(=O)N[C@@H](Cc1ccccc1)C(=O)N[C@@H](CCCC)C(=O)N[C@@H](Cc1ccc(O)cc1)C(=O)N[C@H](CCCCN)C(=O)N[C@H](CCCCN)C(=O)N[C@H](CCCCNC(=O)c1ccc(F)cc1)C(N)=O [Peptide 6, reference compound] (For-[Nle]LF[Nle]Y[dK][dK][dK](Benzoyl(4-F))-NH2)
Result: 7.66

Recorded values, source patent US9044520B2.
